Values were extracted from PubChem BioAssay (EPA / NIEHS).

read-out: Interferon-gamma inducible Protein 10 (IP10), CXCL10 (gene 3627); assay: BSK_KF3CT_IP10: BioMAP Diversity Plus: KF3CT Assay for Interferon-gamma inducible Protein 10 (IP10) Biomarker Activity (AID 2283068); settings: primary human keratinocytes with fibroblasts; actives raise or lower the signal
The source made the active and inactive calls. The calls were made as follows: active = hit-call score of the fitted dose curve at least 0.9, where 1 is the maximum; inactive = score below 0.9.
MEASURE NAME: AC50

CC(C)CCCCCCOC(=O)CCCCC(=O)OCCCCCCC(C)C :: inactive
CC(O)CO (centres undefined) :: inactive
NC(=O)N1C(=O)C(C(=O)c2cc(Cl)cs2)c2cc(F)c(Cl)cc21 (centres undefined) :: 8.07 µM (active)
CCc1ccc(CCOc2ccc(CC3SC(=O)NC3=O)cc2)nc1 (centres undefined) :: inactive

###

Biological target: AR (gene 367) (UniProt P10275)
Sequence (P10275 whole entry, looked up): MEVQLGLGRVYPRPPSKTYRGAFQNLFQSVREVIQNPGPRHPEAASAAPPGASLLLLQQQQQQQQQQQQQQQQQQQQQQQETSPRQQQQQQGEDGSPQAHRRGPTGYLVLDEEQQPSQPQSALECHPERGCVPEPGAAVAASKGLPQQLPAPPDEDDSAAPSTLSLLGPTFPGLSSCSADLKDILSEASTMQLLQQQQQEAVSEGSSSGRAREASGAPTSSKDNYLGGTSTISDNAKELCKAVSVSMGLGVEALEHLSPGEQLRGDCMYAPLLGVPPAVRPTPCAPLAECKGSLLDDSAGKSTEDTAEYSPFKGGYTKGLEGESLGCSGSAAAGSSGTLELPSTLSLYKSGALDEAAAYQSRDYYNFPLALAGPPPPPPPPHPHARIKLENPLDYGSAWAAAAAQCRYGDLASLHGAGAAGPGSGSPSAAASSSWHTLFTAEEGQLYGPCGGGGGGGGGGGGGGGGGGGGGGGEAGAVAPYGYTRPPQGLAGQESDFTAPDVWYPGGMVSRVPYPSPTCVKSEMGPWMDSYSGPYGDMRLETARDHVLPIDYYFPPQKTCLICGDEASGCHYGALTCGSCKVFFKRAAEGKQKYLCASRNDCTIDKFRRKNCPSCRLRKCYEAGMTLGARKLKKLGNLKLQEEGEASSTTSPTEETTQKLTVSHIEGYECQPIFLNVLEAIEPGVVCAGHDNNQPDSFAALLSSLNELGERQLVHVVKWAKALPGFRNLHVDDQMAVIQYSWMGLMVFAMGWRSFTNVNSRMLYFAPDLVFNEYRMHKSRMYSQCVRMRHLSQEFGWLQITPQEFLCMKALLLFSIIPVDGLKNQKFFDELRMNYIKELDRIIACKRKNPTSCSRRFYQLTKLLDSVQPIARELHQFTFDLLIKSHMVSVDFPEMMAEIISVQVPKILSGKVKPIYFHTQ
Test: ACEA_AR_agonist_80hr: ACEA Biosciences xCELLigence Real-Time Cell Analysis on Androgen Receptor Agonism for Proliferation (AID 2283783);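 also: hits increase impedance growth signal above DMSO baseline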
Method: ACEA_AR_agonist is a cell-based, single-readout assay that uses 22Rv1, a human prostate cancer cell line, with measurements taken at 80 hours after chemical dosing in a 384-well plate, although TO5 and TO6 (mc0.srcf) used a 96-well plate. Differences in plate size can be ignored given data normalization.ACEA_AR_agonist_80hr is one of two assay component(s) measured or calculated from the ACEA_AR assay. […]
Inconclusive results are not listed. Activity calls are given as the source filed them. Rule for the calls: active = hit-call score of the fitted dose curve at least 0.9, where 1 is the maximum; inconclusive = response in the unintended direction; inactive = score below 0.9.
Select the matching outcome among TRUE for active, FALSE for inactive

Name the outcome recorded for COc1cc(CCC(=O)CC(=O)CCc2ccc(O)c(OC)c2)ccc1O in the assay.
FALSE

Name the outcome recorded for CC[C@H](c1ccc(O)cc1)[C@@H](CC)c1ccc(O)cc1 in the assay.
FALSE

Which outcome did this test record for the compound Nc1cccc2c(N)cccc12 ?
TRUE

###

read-out: Cytochrome P450 (CYP24A1), CYP24A1 (gene 1591); experiment: LTEA_HepaRG_CYP24A1: Life Technologies and Expression Analysis (LTEA) Assay for Cytochrome P450 (CYP24A1) using HepaRG (AID 2283478); conditions: mRNA level, 48 h; actives raise or lower the signal
Active and inactive are the calls of the source. Rule for the calls: active = hit-call score of the fitted dose curve at least 0.9, where 1 is the maximum; inactive = score below 0.9.
// one of Y for active, N for inactive, no free text

In this assay, the call recorded for CC(=O)CC(C)(C)O was what?
N

Please let me know the test result on file for ClC1=C(Cl)C(Cl)(Cl)C(Cl)=C1Cl .
N

What did the test return for CC(=O)NC1(c2cccc(F)c2)CCN(CC[C@@]2(c3ccc(Cl)c(Cl)c3)CN(c3ccccc3)C(=O)CO2)CC1 ?
N

Which result was noted for this molecule in the test: CC[C@H](c1ccc(O)cc1)[C@@H](CC)c1ccc(O)cc1
Y

Write down the call the test reported for this molecule. Item: CCCCCCCCC(=O)O
N

###

read-out: Bcl-2 (BAX) gene, BAX (gene 581); assay: LTEA_HepaRG_BAX: Life Technologies and Expression Analysis (LTEA) Assay for Bcl-2 (BAX) gene using HepaRG (AID 2283470); conditions: mRNA level, 48 h; actives raise or lower the signal
Activity calls are given as the source filed them. The calls were made as follows: active = hit-call score of the fitted dose curve at least 0.9, where 1 is the maximum; inactive = score below 0.9.
Field 'call' accepts YES (active), NO (inactive)

Recorded call for NC(=O)N(O)[C@@H]1C=C[C@H](Oc2cccc(Oc3ccc(F)cc3)c2)C1 ?
YES

Hi, do you know how CC(C)(C)CC(C)(C)c1ccc(O)c(-n2nc3ccccc3n2)c1 came out in this test?
NO

Give the logged outcome of this assay for the following molecule: COCC(C)OCC(C)O (centres undefined)
NO

Outcome? CC(C)(C)c1cccc(C(C)(C)C)c1O
NO

###

Assay: Tanguay_ZF_120hpf_SOMI_legacy: (Legacy) Oregon State University Tanguay Lab 120 Hour Post-fertilization zebrafish Assay for Somite Malformation (AID 2283647)
Experimental: Tanguay_ZF_120hpf_legacy is a whole embryo, multiplexed endpoint assay using zebrafish larvae exposed for 120 hours post fertilization on a 96-well plate.Tanguay_ZF_120hpf_SOMI_legacy is one of one assay component(s) measured or calculated from the Tanguay_ZF_120hpf_legacy assay. […] This assay endpoint, Tanguay_ZF_120hpf_SOMI_legacy, was analyzed in the positive analysis fitting direction relative to DMSO as the negative control and baseline of activity. […]
Inconclusive results are not listed. The source made the active and inactive calls. Rule for the calls: active = hit-call score of the fitted dose curve at least 0.9, where 1 is the maximum; inconclusive = response in the unintended direction; inactive = score below 0.9.
Give one outcome, nothing more. List: Y for active, N for inactive

// param item: NC(=O)N1C(=O)C(C(=O)c2cc(Cl)cs2)c2cc(F)c(Cl)cc21 (stereo unspecified) ; yields the recorded call
N

Short answer needed: outcome of this test for CCCCCCCCOC(=O)CCCCCCCCC(=O)OCCCCCCCC ?
N

How was CC(C)(C)CC(C)(C)c1ccc(O)c(-n2nc3ccccc3n2)c1 classified in this test?
N

Short answer needed: outcome of this test for CC(C)(C)c1ccc(O)c(C(C)(C)C)c1 ?
N

Record lookup: outcome of this test for CCOC(=O)CC(O)(CC(=O)OCC)C(=O)OCC ?
N

I'd appreciate the recorded outcome for Cc1cc(CCN2CCN(c3nsc4ccccc34)CC2)cc2c1NC(=O)CC2(C)C from this test.
Y

# lookup: test call for OCCC(F)(F)C(F)(F)C(F)(F)C(F)(F)C(F)(F)C(F)(F)F
N

Could you please tell me the result logged for CC(=O)NC1(c2cccc(F)c2)CCN(CC[C@@]2(c3ccc(Cl)c(Cl)c3)CN(c3ccccc3)C(=O)CO2)CC1 in this assay?
N

# lookup: test call for OC1CCCCC1
N

// param item: CC[C@H](C)[C@@H](C(=O)O)n1sc2ccccc2c1=O ; yields the recorded call
N

In this assay, the call recorded for c1ccc2c(c1)Cc1ccccc1-2 was what?
N

###

read-out: Monocyte Chemoattractant Protein-1 (MCP1), CCL2 (gene 6347); assay: BSK_LPS_MCP1: BioMAP Diversity Plus: LPS Assay for Monocyte Chemoattractant Protein-1 (MCP1) Biomarker Activity (AID 2283081); details: primary human HUVEC with PBMC; actives raise or lower the signal
The source made the active and inactive calls. The calls were made as follows: active = hit-call score of the fitted dose curve at least 0.9, where 1 is the maximum; inactive = score below 0.9.
Your response should consist of one outcome taken from y = active, n = inactive

Hey, what did the test say about O=C(O)Cc1cc(I)c(Oc2cc(I)c(O)c(I)c2)c(I)c1 ?
y

Dear colleague, could you share the recorded outcome for CCCOc1sc(C(=O)N2CCC(c3cc(CN)ccc3F)CC2)c(C)c1Br when you have a moment?
y

Could you please tell me the result logged for COC(=O)CCCCC(=O)OC in this assay?
n

Called result for NC(=O)N(O)[C@@H]1C=C[C@H](Oc2cccc(Oc3ccc(F)cc3)c2)C1
n

Tell me the recorded outcome of this test for CCCCCCCCCCCCN1CCCC1=O .
y

Record lookup: outcome of this test for Cc1oc(-c2ccccc2)nc1CCOc1ccc(C[C@H](Nc2ccccc2C(=O)c2ccccc2)C(=O)O)cc1 ?
y

Hey, what did the test say about Cc1cc(C)c(O)c(C)c1 ?
n

Check the results log: what was the call for CC(=O)CC(C)(C)O ?
n

Can you look up the reported call for O=[N+]([O-])c1ccc(O)cc1 for me?
n

###

assay: CCTE_Harrill_HTTr_CellCount_MCF7: CCTE's Cell Proliferation Assessment for the High-Throughput Transcriptomics (HTTr) Platform, Harrill Lab (AID 2284012);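 also: count of Hoechst-stained nuclei per well by high-content imaging in MCF-7 cells; cells exposed to compound for six hours; intended direction is loss of nuclei count meaning fewer cells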
Results filed as inconclusive are left out. The source made the active and inactive calls. The calls were made as follows: active = hit-call score of the fitted dose curve at least 0.9, where 1 is the maximum; inconclusive = response in the unintended direction; inactive = score below 0.9.
MEASURE NAME: outcome

Cc1cc(C)c(O)c(C)c1 :: inactive
CCc1ccc(CCOc2ccc(CC3SC(=O)NC3=O)cc2)nc1 (stereo not drawn) :: inactive
CCOC(=O)CC(O)(CC(=O)OCC)C(=O)OCC :: inactive

###

read-out: Interleukin-8 (IL8), CXCL8 (gene 3576); assay: BSK_CASM3C_IL8: BioMAP Diversity Plus: CASM3C Assay for Interleukin-8 (IL8) Biomarker Activity (AID 2283042); conditions: primary human coronary artery smooth muscle cells; actives raise or lower the signal;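 also: IL-8 protein level quantified by ELISA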
The source made the active and inactive calls. The calls were made as follows: active = hit-call score of the fitted dose curve at least 0.9, where 1 is the maximum; inactive = score below 0.9.
Respond using exactly one of the listed classes: active, inactive

Field: outcome | Entry: Oc1cc2ccccc2c2ccccc12
active

Which result was noted for this compound in the test: OC1CCCCC1
active

# outcome recorded in this test, key = CCCCCCCCCCCCCCCS(=O)(=O)Oc1ccccc1
inactive

Answer briefly: the call reported for CCCOc1sc(C(=O)N2CCC(c3cc(CN)ccc3F)CC2)c(C)c1Br in this assay.
active

Each compound tested received a call. Report the one for CCCCCCCCCCCCCC[N+](C)(C)C .
active

###

test: CEETOX_H295R_11DCORT: CeeTox H295R High-throughput Steroidogenesis Assay for 11-Deoxycortisol (11DCORT) (AID 2283432); conditions: actives raise or lower the signal
Active and inactive are the calls of the source. How the source made its calls: active means hit-call score of the fitted dose curve at least 0.9, where 1 is the maximum; inactive means score below 0.9.
Give your call using only these classes: active, inactive

Please let me know the test result on file for CC1=C(/C=C/C(C)=C/C=C/C(C)=C/C(=O)O)C(C)(C)CCC1 .
inactive

Check the results log: what was the call for Oc1cccc(O)c1 ?
inactive

Which outcome did this test record for the compound CCc1ccc(CCOc2ccc(CC3SC(=O)NC3=O)cc2)nc1 (stereo not given) ?
inactive

What outcome does the record of this test show for O=C(O)c1ccccc1C(c1ccc(O)cc1)c1ccc(O)cc1 ?
active

Could you kindly confirm the outcome this assay logged for COc1ccc([N+](=O)[O-])cc1N ?
active
